Source listed as patent US7629318B2.

- Tested system: Priess (DR4Dw4: DRA1*0101 DRB1*0401) cells (Homo sapiens, UniProt P01903+P01911, A100K/A169T/F76Y/I96L/K127E/L162R/M171V/N62H/P40V/Q125Y/R42H/S133A/S149N/S66Y/V115G/V209L/W38E)
- Construct: MHC II Proteins Expressed on PRIESS and LG2 Cells; endogenous in cells; host or cells: Priess cells
- Protocol details: Competitive binding to MHC II proteins expressed on Priess cells
- Type: cell-based
Numbered stars: 1 amine (or outer) side, 2 acyl side, 3 side chain; on linkers, the order of the positions; unused ones are H or OH. Square brackets hold non-standard residues; d marks the D form. Peptide text beside a SMILES is read from it. * marks the point of attachment. Gly(1-amidinopiperidin-4-yl) = N=C(N)N1CCC([C@H](N)C(=O)O)CC1; X1 = CC(C)c1oc([C@H](CO)N[*:1])nc1C(=O)[*:2]; Pro(3R-Ph) = O=C(O)[C@H]1NCC[C@@H]1c1ccccc1; Met(O) = CS(=O)CC[C@H](N)C(=O)O; Tic = O=C(O)[C@@H]1Cc2ccccc2CN1; Cha = N[C@@H](CC1CCCCC1)C(=O)O; NHPhenethyl = c1ccc(CCN*)cc1; NMe(benzyl) = CN(Cc1ccccc1)*; Nle = CCCC[C@H](N)C(=O)O
Measure name: IC50 (µM)

• CCCC[C@H](NC(=O)[C@@H]1Cc2ccccc2CN1C(=O)[C@@H](NC(=O)[C@H](CC1CCCCC1)NC(C)=O)C1CCN(C(=N)N)CC1)C(=O)NCCc1ccccc1 [Compound P69, Ac-Cha-Gpg-Tic-Nle-N(H)CH2CH2Ph] (Ac-[Cha][Gly(1-amidinopiperidin-4-yl)][Tic][Nle]-NHPhenethyl) = 11
• CC(=O)N[C@@H](CC1CCCCC1)C(=O)N[C@@H](CCCNC(=N)N)C(=O)N1Cc2ccccc2C[C@H]1C(=O)N[C@@H](CC[S+](C)[O-])C(=O)N1CC[C@H](c2ccccc2)[C@H]1C(=O)N[C@@H](CO)c1nc(C(=O)N(C)C)c(C(C)C)o1 (stereo partly drawn) [Compound P43] (Ac-[Cha]R[Tic][Met(O)][Pro(3R-Ph)][X1]-NMe2) = 3.1
• CSCC[C@H](NC(=O)[C@@H]1Cc2ccccc2CN1C(=O)[C@H](CCCNC(=N)N)NC(=O)[C@H](CC1CCCCC1)NC(C)=O)C(=O)N1CC[C@H](c2ccccc2)[C@H]1C(N)=O [Compound P31, Ac-Cha-Arg-Tic-Met-βPhPro-NH2] (Ac-[Cha]R[Tic]M[Pro(3R-Ph)]-NH2) = 3.7
• CCCC[C@H](NC(=O)[C@@H]1Cc2ccccc2CN1C(=O)[C@@H](NC(=O)[C@H](CC1CCCCC1)NC(C)=O)C1CCN(C(=N)N)CC1)C(=O)N(C)Cc1ccccc1 [Compound P74, Ac-Cha-Gpg-Tic-Nle-N(Me)Bn] (Ac-[Cha][Gly(1-amidinopiperidin-4-yl)][Tic][Nle]-{NMe(benzyl)}) = 9.2

###

- System: T-cell proliferation, lymph node cells of chimeric 0401-IE transgenic mice
- Test context: read-out: Immunsupressive assays DR4-LN (IC50); DR4-LN
pIC50: −log10 of the molar value. Numbered stars: 1 amine (or outer) side, 2 acyl side, 3 side chain; on linkers, the order of the positions; unused ones are H or OH. Square brackets hold non-standard residues; d marks the D form. Peptide text beside a SMILES is read from it. * marks the point of attachment. Gly(1-amidinopiperidin-4-yl) = N=C(N)N1CCC([C@H](N)C(=O)O)CC1; X1 = CC(C)c1oc([C@H](CO)N[*:1])nc1C(=O)[*:2]; Pro(3R-Ph) = O=C(O)[C@H]1NCC[C@@H]1c1ccccc1; Met(O) = CS(=O)CC[C@H](N)C(=O)O; Tic = O=C(O)[C@@H]1Cc2ccccc2CN1; Cha = N[C@@H](CC1CCCCC1)C(=O)O; NHPhenethyl = c1ccc(CCN*)cc1; NMe(benzyl) = CN(Cc1ccccc1)*; Nle = CCCC[C@H](N)C(=O)O; X2 = OCCOCCN(Cc1ccccc1)*
Measure name: pIC50

* CSCC[C@H](NC(=O)[C@@H]1Cc2ccccc2CN1C(=O)[C@@H](NC(=O)[C@H](CC1CCCCC1)NC(C)=O)C1CCN(C(=N)N)CC1)C(=O)N(CCOCCO)Cc1ccccc1 [Compound P102, Ac-Cha-Gpg-Tic-Met-N(Bn)CH2CH2OCH2CH2OH] (Ac-[Cha][Gly(1-amidinopiperidin-4-yl)][Tic]M-X2) | 3.96
* CCCC[C@H](NC(=O)[C@@H]1Cc2ccccc2CN1C(=O)[C@@H](NC(=O)[C@H](CC1CCCCC1)NC(C)=O)C1CCN(C(=N)N)CC1)C(=O)NCCc1ccccc1 [Compound P69, Ac-Cha-Gpg-Tic-Nle-N(H)CH2CH2Ph] (Ac-[Cha][Gly(1-amidinopiperidin-4-yl)][Tic][Nle]-NHPhenethyl) | 4.72
* CCCC[C@H](NC(=O)[C@@H]1Cc2ccccc2CN1C(=O)[C@@H](NC(=O)[C@H](CC1CCCCC1)NC(C)=O)C1CCN(C(=N)N)CC1)C(=O)N1CC[C@H](c2ccccc2)[C@H]1C(=O)N[C@@H](CO)c1nc(C(=O)N(C)C)c(C(C)C)o1 [Compound P53] (Ac-[Cha][Gly(1-amidinopiperidin-4-yl)][Tic][Nle][Pro(3R-Ph)][X1]-NMe2) | 4.40
* CC(=O)N[C@@H](CC1CCCCC1)C(=O)N[C@H](C(=O)N1Cc2ccccc2C[C@H]1C(=O)N[C@@H](CC[S+](C)[O-])C(=O)N1CC[C@H](c2ccccc2)[C@H]1C(=O)N[C@@H](CO)c1nc(C(=O)N(C)C)c(C(C)C)o1)C1CCN(C(=N)N)CC1 (stereo partly drawn) [Compound P47] (Ac-[Cha][Gly(1-amidinopiperidin-4-yl)][Tic][Met(O)][Pro(3R-Ph)][X1]-NMe2) | 4.11
* CSCC[C@H](NC(=O)[C@@H]1Cc2ccccc2CN1C(=O)[C@@H](NC(=O)[C@H](CC1CCCCC1)NC(C)=O)C1CCN(C(=N)N)CC1)C(=O)N1CC[C@H](c2ccccc2)[C@H]1C(=O)N[C@@H](CO)c1nc(C(=O)N(C)C)c(C(C)C)o1 [Compound P60] (Ac-[Cha][Gly(1-amidinopiperidin-4-yl)][Tic]M[Pro(3R-Ph)][X1]-NMe2) | 4.54
* CCCC[C@H](NC(=O)[C@@H]1Cc2ccccc2CN1C(=O)[C@H](CCCNC(=N)N)NC(=O)[C@H](CC1CCCCC1)NC(C)=O)C(=O)N(C)Cc1ccccc1 [Compound P71, Ac-Cha-Arg-Tic-Nle-N(Me)Bn] (Ac-[Cha]R[Tic][Nle]-{NMe(benzyl)}) | 4.72

###

- Tested on: T cell activation from 0404(DR14) chimeric MHCII-mice
- Protocol details: In vivo inhibition of T cell activation by co-immunisation, DR14 mice immunised with OVA
- Set-up: species or system mouse; concentration or dose not given beside the values
- Test context: specificity control: response to PPD in the same cell pool, OVA co-immunised mice
Square brackets hold non-standard residues; d marks the D form. Peptide text beside a SMILES is read from it. * marks the point of attachment. Gly(1-amidinopiperidin-4-yl) = N=C(N)N1CCC([C@H](N)C(=O)O)CC1; Tic = O=C(O)[C@@H]1Cc2ccccc2CN1; Cha = N[C@@H](CC1CCCCC1)C(=O)O; NMe(benzyl) = CN(Cc1ccccc1)*; Nle = CCCC[C@H](N)C(=O)O; NHBn = c1ccc(CN*)cc1; X3 = OCCOCCN*
The following molecules are shown together with reported % Reduction of response to PPD(OVA) values.
Measure name: % Reduction of response to PPD(OVA) (%)

- CCCC[C@H](NC(=O)[C@@H]1Cc2ccccc2CN1C(=O)[C@@H](NC(=O)[C@H](CC1CCCCC1)NC(C)=O)C1CCN(C(=N)N)CC1)C(=O)N(C)Cc1ccccc1 [Compound P74, Ac-Cha-Gpg-Tic-Nle-N(Me)Bn] (Ac-[Cha][Gly(1-amidinopiperidin-4-yl)][Tic][Nle]-{NMe(benzyl)}): 5.8
- CCCC[C@H](NC(=O)[C@@H]1Cc2ccccc2CN1C(=O)[C@@H](NC(=O)[C@H](CC1CCCCC1)NC(C)=O)C1CCN(C(=N)N)CC1)C(=O)NCCOCCO [Compound P70, Ac-Cha-Gpg-Tic-Nle-N(H)CH2CH2OCH2CH2OH] (Ac-[Cha][Gly(1-amidinopiperidin-4-yl)][Tic][Nle]-X3): 52.3
- CCCC[C@H](NC(=O)[C@@H]1Cc2ccccc2CN1C(=O)[C@@H](NC(=O)[C@H](CC1CCCCC1)NC(C)=O)C1CCN(C(=N)N)CC1)C(=O)NCc1ccccc1 [Compound P68, Ac-Cha-Gpg-Tic-Nle-N(H)Bn] (Ac-[Cha][Gly(1-amidinopiperidin-4-yl)][Tic][Nle]-NHBn): 65.9
